Each record here notes measured Antiviral EC50 (ug/ml) Davis strain CMV.
tested on: Davis strain CMV; test: Reduction of CMV-induced cytopathicity in HEL cells; type: cell-based, human cytomegalovirus (HCMV); conditions: HEL cells, virus-induced cytopathicity after seven days
Your answer should be a plain number; it is taken to be in µg/mL.

molecule | Antiviral EC50 (ug/ml) Davis strain CMV (µg/mL)
COc1ccc(CS(=O)(=O)c2cc(C(C)(C)C)cc[n+]2[O-])cc1 [Compound 135] | 12.5

# Antiviral EC50 (ug/ml) Davis strain CMV of Cc1ccc(C(C)S(=O)(=O)c2c(C)ccc[n+]2[O-])c(C)c1 (racemic) [Compound 78] = 10.0
